System: Human immunodeficiency virus type 1 reverse transcriptase (Human immunodeficiency virus 1), Q72547 [Y181I]
log10 of ID50 reference
readoutType: log10 of ID50 (log10 of the value in µM)

> print(dat)
                                    compound  reportedmeasurement
 1  COC(c1nc(SC(C)C)[nH]c(=O)c1C)c1c(F)cccc1F (configuration not stated)                 0.96
 2  Cc1c(C(C)c2c(F)cccc2F)nc(SC2CCCC2)[nH]c1=O (configuration not stated)                -0.05
 3  Cc1c(C(C)c2c(F)cccc2F)nc(NC2CCCC2)[nH]c1=O (configuration not stated)                 0.23
 4  COC(c1nc(NC(C)C)[nH]c(=O)c1C)c1c(F)cccc1F (configuration not stated)                 0.28
 5  CO[C@H](c1nc(SC(C)C)[nH]c(=O)c1C)c1c(F)cccc1Cl                 0.76
 6  CCCN(C)c1nc(C(OC)c2c(F)cccc2Cl)c(C)c(=O)[nH]1 (configuration not stated)                 0.04
 7  COC(c1nc(NC2CCCC2)[nH]c(=O)c1C)c1c(F)cccc1Cl (configuration not stated)                 0.18
 8  CCCNc1nc(C(OC)c2c(Cl)cccc2Cl)c(C)c(=O)[nH]1 (configuration not stated)                 0.57
 9  CCC(C)Sc1nc(C(OC)c2c(F)cccc2F)c(C)c(=O)[nH]1 (configuration not stated)                 0.73
10  CCCNc1nc(C(C)c2c(F)cccc2F)c(C)c(=O)[nH]1 (configuration not stated)                 0.70
11  Cc1c([C@@H](C)c2c(F)cccc2F)nc(SC2CCCC2)[nH]c1=O                 0.68
12  CCCN(C)c1nc(C(OC)c2c(F)cccc2F)c(C)c(=O)[nH]1 (configuration not stated)                 0.08
13  COC(c1nc(SC2CCCC2)[nH]c(=O)c1C)c1c(F)cccc1F (configuration not stated)                -0.24
